Sourced from the supplement of paper PMC3334620

We begin with a simple list: items and their reported PBM E-score.
Target: Sut1 (UniProt P53032)
Sequence: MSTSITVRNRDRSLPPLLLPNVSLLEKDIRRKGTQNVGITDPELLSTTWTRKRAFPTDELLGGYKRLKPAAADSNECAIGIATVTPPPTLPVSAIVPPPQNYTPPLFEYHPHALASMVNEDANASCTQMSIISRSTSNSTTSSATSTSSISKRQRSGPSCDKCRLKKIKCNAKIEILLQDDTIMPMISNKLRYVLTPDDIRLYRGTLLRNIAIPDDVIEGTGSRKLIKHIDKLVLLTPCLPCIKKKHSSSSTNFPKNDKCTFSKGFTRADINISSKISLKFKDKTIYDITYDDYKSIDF
Experiment: PBM E-score (8-mer binding enrichment) (E-score (-0.5 to 0.5)); higher = stronger / more preferred TF binding
Settings: protein concentration: 200 nM; construct: GST-full length
In all, about 33,000 sequences were measured (“E-score (-0.5 to 0.5)”: median about -0.017, highest 2% from about 0.3 on). Shown is part of a subset that was picked to be rich in the highest values.
Give your answer as a number; write no unit.

Example entries begin here.
1. AACCGAAT 0.099
2. CTCCGAAA 0.46

Q: Entry CACCTTGC : reported PBM E-score = ?
A: 0.00165

Q: Also check ATCGGAGA
A: 0.416

Q: Next up: GTACGTCA
A: -0.0804

Q: Would you kindly repeat that for GATACGCA ?
A: -0.141

Q: One more sequence: GGAGAGCA
A: -0.125

Q: Proceed to ATCCGAGC
A: 0.0537

Q: Do the same for CTCCGAGA please
A: 0.459

Q: Entry CGCCGAGA please
A: 0.0729

Q: One more sequence: ATGCCGGC
A: -0.0395

Q: Proceed to GCGCAAGC
A: -0.234

Q: Also ACTATATA ?
A: 0.308

Q: Repeat with GAATGTCC
A: 0.282

Q: Likewise for ACATACTG ?
A: 0.0299

Q: Query ACGGAAAT next
A: 0.344

Q: Same question, AAGCCGGA this time
A: 0.331

Q: Also GCCCATGA ?
A: -0.222

Q: Now the sequence AATTTATA
A: 0.276

Q: Next record, please: TAATTAGA
A: 0.218

Q: Record: AAAATATA
A: 0.267

Q: Also check AATATATA
A: 0.325

Q: Also check GAAACTGA
A: -0.0944

Q: Do the same for GTCCAAAC please
A: -0.0427

###

Consider the following sequences and their measured PBM E-score readings.
Target: Sut1 (UniProt P53032)
Sequence: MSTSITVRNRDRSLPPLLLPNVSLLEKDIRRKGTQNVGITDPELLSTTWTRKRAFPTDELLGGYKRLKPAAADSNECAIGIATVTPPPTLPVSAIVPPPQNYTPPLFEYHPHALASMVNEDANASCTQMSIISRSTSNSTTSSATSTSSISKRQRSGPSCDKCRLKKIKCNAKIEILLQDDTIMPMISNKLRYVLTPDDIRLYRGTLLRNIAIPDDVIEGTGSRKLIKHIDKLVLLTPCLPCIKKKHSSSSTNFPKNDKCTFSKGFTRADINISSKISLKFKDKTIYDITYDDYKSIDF
Experiment: PBM E-score (8-mer binding enrichment) (E-score (-0.5 to 0.5)); higher = stronger / more preferred TF binding
Conditions: protein concentration: 200 nM; construct: GST-full length
Over roughly 33,000 sequences, “E-score (-0.5 to 0.5)” has its median near -0.017; the highest 2% begin near 0.3. Only a selection was taken, and the highest values are over-represented in it overall.
Respond with the number and no other words.

1) CTGGTTCA -0.0784
2) CACTTTAA 0.157
3) AACTTTAG 0.189

Q: Any idea what PBM E-score was measured for ATCCGGCA ?
A: -0.166

Q: Now give it for CCGGCCGA too.
A: 0.0979

###

Recorded PBM E-score values for a group of sequences are listed next.
Biological target: Sut1 (UniProt P53032)
Sequence: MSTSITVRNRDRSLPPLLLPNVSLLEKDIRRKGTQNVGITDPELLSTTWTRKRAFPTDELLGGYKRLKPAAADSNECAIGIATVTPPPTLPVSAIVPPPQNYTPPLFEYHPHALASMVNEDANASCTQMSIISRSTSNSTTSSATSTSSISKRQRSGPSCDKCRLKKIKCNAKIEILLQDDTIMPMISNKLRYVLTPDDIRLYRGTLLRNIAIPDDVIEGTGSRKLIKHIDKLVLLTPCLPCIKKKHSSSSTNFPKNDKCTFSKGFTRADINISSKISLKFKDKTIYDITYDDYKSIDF
Experiment: PBM E-score (8-mer binding enrichment) (E-score (-0.5 to 0.5)); higher = stronger / more preferred TF binding
Conditions: protein concentration: 200 nM; construct: GST-full length
Over roughly 33,000 sequences, “E-score (-0.5 to 0.5)” has its median near -0.017; the highest 2% begin near 0.3. The full list was thinned out, with the highest values kept by preference.
Just the number.

Q: For the sequence shown here, CTAACTAG , give the reported PBM E-score.
A: 0.302

Q: Please answer likewise for ATCACCTA
A: -0.13

Q: Also, GCTTCGAC please.
A: -0.218

Q: Subsequent entry: TGTGTAAA
A: 0.194

Q: Note, next up: AAGCCAAC
A: 0.118

Q: Same thing, different sequence: GATAATTA
A: 0.216

Q: Now this one: CATAATTA
A: 0.317

Q: GAGCTAAA , same question.
A: 0.106

Q: Try this sequence next: GGTTAATA
A: 0.163

Q: For CGGATGCA then?
A: -0.0215

Q: Then what about the sequence GGCGTTGA ?
A: -0.134

###

Biological target: Sut1 (UniProt P53032)
Sequence: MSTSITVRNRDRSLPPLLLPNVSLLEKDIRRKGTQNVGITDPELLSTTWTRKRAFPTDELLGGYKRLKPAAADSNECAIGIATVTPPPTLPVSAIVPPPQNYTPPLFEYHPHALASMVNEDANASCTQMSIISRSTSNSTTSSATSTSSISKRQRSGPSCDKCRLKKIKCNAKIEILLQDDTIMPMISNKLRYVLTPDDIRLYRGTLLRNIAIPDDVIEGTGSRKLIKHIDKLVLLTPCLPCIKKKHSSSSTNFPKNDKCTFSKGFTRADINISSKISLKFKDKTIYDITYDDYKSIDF
Experiment: PBM E-score (8-mer binding enrichment) (E-score (-0.5 to 0.5)); higher = stronger / more preferred TF binding
Details: protein concentration: 200 nM; construct: GST-full length
Whole data set: some 33,000 sequences, median “E-score (-0.5 to 0.5)” near -0.017, cut for the highest 2% near 0.3. This excerpt belongs to a sample that is enriched for the highest values.
PBM E-score values by entry
Just the number, please, no unit attached.

# annotated cases, reported PBM E-score shown
1. CGTGCAGA -0.148
2. CATAGGGA -0.0219
3. ATAATTAC 0.283
4. GTGCTACA -0.0297
5. CCTTAGGA -0.0422

Proceeding to the next sequence to report its PBM E-score.
Q: Param item = ATGTGCGA ; retrieve measured PBM E-score.
A: -0.0365

###

Molecular target: Sut1 (UniProt P53032)
Sequence: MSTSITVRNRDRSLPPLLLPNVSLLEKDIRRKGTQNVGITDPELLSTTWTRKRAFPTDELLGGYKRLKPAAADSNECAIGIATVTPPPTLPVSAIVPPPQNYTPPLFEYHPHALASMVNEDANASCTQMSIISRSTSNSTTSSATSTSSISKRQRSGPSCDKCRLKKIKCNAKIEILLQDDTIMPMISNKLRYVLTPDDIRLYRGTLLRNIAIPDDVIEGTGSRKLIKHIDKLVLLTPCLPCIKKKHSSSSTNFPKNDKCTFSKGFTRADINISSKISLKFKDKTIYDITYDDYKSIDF
Experiment: PBM E-score (8-mer binding enrichment) (E-score (-0.5 to 0.5)); higher = stronger / more preferred TF binding
Settings: protein concentration: 200 nM; construct: GST-full length
The full ranking holds about 33,000 sequences; the median of “E-score (-0.5 to 0.5)” is about -0.017, and the highest 2% start at about 0.3. Many of the other results were omitted from the sample, so the highest values are more common in it than they were.
Recorded PBM E-score values for a group of sequences are listed next.
Give the figure by itself; no unit, no explanation.

# annotated cases, reported PBM E-score shown
1. ACAAGAAA 0.218
2. GAAAGAAA 0.294
3. ATGTCCGG 0.451
4. AACTCGAA -0.0516
5. ATTTCCGG 0.325

Q: Data request, read-out PBM E-score, for ACATCAAT
A: 0.201

Q: Do the same for ATACAGTG please
A: 0.0667

Q: Another: CCCCGGCC
A: -0.173

Q: Please do the same for CCTAGCCC as well.
A: -0.128

Q: Please do the same for GTCGGAAC as well.
A: 0.134

Q: Input CCTTCAGA
A: -0.0889

Q: Similarly, CAAAGAAA ?
A: 0.115

Q: Field entry: CTGTCCGA
A: 0.192

Q: Same for ATTTCCGA
A: 0.231

Q: Now consider AAAGTCAG and answer again.
A: 0.00828

Q: Also, AATTTCCG please.
A: 0.257
